Test system: HL-60
ASSAY SUMMARY: NCI tumour cell line growth inhibition, 48 h
Activity calls are given as the source filed them. No stated cut-off is given here; in the data, active = GI50 up to about 1.1 µM and inactive = higher.
Write down the outcome that applies. Available outcomes: active, inactive

// below: answered molecules
• C=O.NNCCc1n[nH]c(=O)n1N = inactive
• CCOC(=O)C(CC(C)C)NC(=O)C(Cc1ccc(N(CCCl)CCCl)cc1)NC(C)=O (configuration not stated) = active
• CCCCC#CS(=O)(=O)C(F)(F)F = inactive
• CCCC[S+]([O-])CCC(N)C(=O)O (configuration not stated) = inactive
• CC1CC(C)C(O)C(C2CC(CC(=O)NC3CCCCC3)CC(=O)O2)C1 (configuration not stated) = inactive

Could you kindly confirm the outcome this assay logged for O=C1C(S(=O)(=O)c2ccccc2)=C(CS(=O)(=O)c2ccccc2)[C@@H](OCc2ccccc2)[C@@H]1OCc1ccccc1 ? inactive

Name the outcome recorded for C(=N\c1ccc(-c2cc(-c3ccccc3)nc3ccc4ccccc4c23)cc1)/c1ccccc1 in the assay. inactive

Field: outcome | Entry: BrC1(Br)C2/C=C\CCCCC21 (configuration not stated) inactive

For N#CC1=C(N)n2c(s/c(=C\c3ccc(Cl)cc3)c2=O)=C(c2nc3ccccc3[nH]2)C1c1ccc(Cl)cc1 (configuration not stated) , which call appears in the assay record? inactive

Field: outcome | Entry: N#CC(Nc1cccc(C(F)(F)F)c1)c1ccccc1C(F)(F)F (configuration not stated) inactive

Record lookup: outcome of this test for CC(C)c1cccc2sc(NC(=O)C(=O)C(C#N)c3cccc4ccccc34)nc12 (configuration not stated) ? inactive

Answer briefly: the call reported for C1COC(NC(C2CC2)C2CC2)=N1 in this assay. inactive

Assay result, entry O=C1CCc2ccccc2O1 [DIHYDROCOUMARIN] — outcome? inactive

Hey, what did the test say about COC(=O)C1(Cc2ccccc2)Cc2ccc3c(c2C1=O)CCC3 (configuration not stated) ? inactive

What outcome does the record of this test show for CC(=O)Nc1c(C)cc2c(nc3n2CCC3OC(C)=O)c1[N+](=O)[O-] (configuration not stated) ? inactive

Record request — test call for O=C(Cc1ccccc1)N/N=C(\C1=Nc2ccc([N+](=O)[O-])cc2NC1O)C(O)c1ccc([N+](=O)[O-])cc1 (configuration not stated) inactive

Look up the recorded call for CC(C)(CCl)NC(=O)c1cccc(C(=O)NC(C)(C)CCl)n1 in this test. inactive

Hi, do you know how CCc1cccc(C(C)CC)c1NC(=O)C(=O)Cc1nc2ccccc2o1 (configuration not stated) came out in this test? inactive

Per the assay record, what outcome was assigned to COC(=O)[C@@H](Nc1ccccc1)[C@@]1(C(=O)OC)SC12c1ccccc1-c1ccccc12 ? inactive

Recorded test call requested for ClC1CCC2OOC1O2 (configuration not stated) inactive

Short answer needed: outcome of this test for COc1ccc(CCn2cnc3ccccc32)cc1 ? inactive

Which outcome was entered for the molecule O=C(COc1ccccc1Cl)N1N=C(c2ccccc2)CC1(O)c1ccccc1 (configuration not stated) in this test? inactive
